molecular target: Beta-lactamase TEM (Escherichia coli) (UniProt P62593); experiment: Activity of Escherichia coli K12 beta-lactamase TEM1 relative to penicillin G
Sequence (P62593 whole entry): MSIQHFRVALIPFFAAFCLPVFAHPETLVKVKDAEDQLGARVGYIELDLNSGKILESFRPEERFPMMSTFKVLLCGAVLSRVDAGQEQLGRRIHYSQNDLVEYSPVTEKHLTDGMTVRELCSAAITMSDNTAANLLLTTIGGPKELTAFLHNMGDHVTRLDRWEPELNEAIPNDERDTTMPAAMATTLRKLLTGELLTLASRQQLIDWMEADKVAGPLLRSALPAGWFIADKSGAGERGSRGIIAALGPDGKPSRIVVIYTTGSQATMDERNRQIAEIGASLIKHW
measurement-kind: Activity
# answer = number (no unit)

Past entries and their recorded results:
* CC1(C)S[C@@H]2[C@H](NC(=O)[C@H](N)c3ccc(O)cc3)C(=O)N2[C@H]1C(=O)O | 108
* CC1(C)S[C@@H]2[C@H](NC(=O)C(C(=O)O)c3ccccc3)C(=O)N2[C@H]1C(=O)O (stereo partly specified) | 15
* O=C(Cc1cccs1)N[C@@H]1C(=O)N2C(C(=O)[O-])=C(C[n+]3ccccc3)CS[C@H]12 | 154

Here's the next entry for you.
Prompt line: Fill blank: measured Activity of the compound CC(=O)OCC1=C(C(=O)O)N2C(=O)[C@@H](NC(=O)Cc3cccs3)[C@H]2SC1 is ____.
Response line: 27

The measured values listed here are drawn from ChEMBL document CHEMBL1145510.
